STUDY SYSTEM: human Nav1.8 channels (Homo sapiens)
Construct: expressed in transfected cells
ASSAY REMARKS: Nav1.8 Qube automated patch-clamp assay
Format: cell-based
RUN CONDITIONS: human Nav1.8 stably expressed in HEK 293 cells; whole-cell voltage clamp, room temperature; resting or inactivated state not specified; read-out: IC50 values (nM) for Examples in the Nav1.8 Qube Assay
OBSERVED PROPERTY: log10 IC50 (log10 of the value in nM)
Log scale reminder: IC50 in nM, then log10 taken.

Reference set, count: 5
MOLECULE	STUDY SYSTEM	log10 IC50
CC1CN(c2ncc(C(F)(F)F)cc2C(=O)Nc2ccnc(S(N)(=O)=O)c2)CCCC1(F)F (stereo not drawn)	human Nav1.8 channels (Homo sapiens)	0.30
NS(=O)(=O)c1cc(NC(=O)c2cc(C(F)(F)F)cnc2N2CCOC(c3ccc(C(F)(F)F)cc3)C2)ccn1 (stereo not drawn)	human Nav1.8 channels (Homo sapiens)	2.79
Cc1ncc(C(=O)Nc2ccnc(S(N)(=O)=O)c2)c(N2CCCC(F)(F)CC2)n1	human Nav1.8 channels (Homo sapiens)	2.30
Cc1nc(N2CCCCC2)c(C(=O)Nc2cncc(S(N)(=O)=O)c2)c(C)c1Cl	human Nav1.8 channels (Homo sapiens)	2.09
CC1(C)CN(c2ncc(C(F)(F)F)cc2C(=O)Nc2ccnc(S(N)(=O)=O)c2)CC(C(F)(F)F)O1 (single isomer, unassigned) [Example 136]	human Nav1.8 channels (Homo sapiens)	2.69

Could you report log10 IC50 for every entry in the following list?
1. CC1(C)CN(c2ncc(C(F)(F)F)cc2C(=O)Nc2ccnc(S(N)(=O)=O)c2)CC(C(F)(F)F)O1 (single isomer, unassigned) [Example 135]
2. Cc1cc(Cl)nc(N2CCC(F)(F)CC2)c1C(=O)Nc1cncc(S(N)(=O)=O)c1
3. CS(=O)(=O)c1cncc(NC(=O)c2cc(C(F)(F)F)cnc2N2CCCCCC2)c1
4. NS(=O)(=O)c1cncc(NC(=O)c2cc(C(F)(F)F)cnc2N2CCCCCC2)c1
5. O=C(Nc1cc[nH]c(=O)c1)c1cc(C(F)(F)F)cnc1N1CCCCCC1
6. CC(C)(C)NS(=O)(=O)c1cc(NC(=O)c2cc(Cl)cnc2N2CCCC(F)(F)CC2)ccn1
7. Cc1nc(C2CCC(C)CC2)c(C(=O)Nc2ccnc(S(N)(=O)=O)c2)c(C)c1Cl (stereo not drawn)

A:
1. 1.76
2. 2.33
3. 2.55
4. 2.21
5. 2.76
6. 2.46
7. 0.82

Could you report log10 IC50 for every entry in the following list?
1. NS(=O)(=O)c1cc(NC(=O)c2cc(C(F)(F)F)cnc2N2C[C@H]3C[C@@H](C2)C3(F)F)ccn1
2. Cc1nc(N2CCCC(F)(F)CC2)c(C(=O)Nc2cnn(S(=O)(=O)CCN)c2)cc1Cl
3. NS(=O)(=O)c1cc(NC(=O)c2cc(-n3cccn3)cnc2N2CCC(F)(F)CC2)ccn1

A:
1: 2.59; 2: 1.54; 3: 3.03

====

STUDY SYSTEM: human Nav1.8 channels (Homo sapiens)
Construct: expressed in transfected cells
ASSAY REMARKS: Nav1.8 Qube automated patch-clamp assay
Format: cell-based
RUN CONDITIONS: human Nav1.8 stably expressed in HEK 293 cells; whole-cell voltage clamp, room temperature; resting or inactivated state not specified; read-out: IC50 values (nM) for Examples in the Nav1.8 Qube Assay
// NB: equality with 400 nM counts as class 0; only IC50 strictly below is class 1

Q: Please determine if CC1CN(c2ncc(C(F)(F)F)cc2C(=O)Nc2ccnc(S(C)(=O)=O)c2)CCC1(F)F (single isomer, unassigned) [Example 149] is below 400 nM in terms of IC50.
A: class 1

====

STUDY SYSTEM: human Nav1.8 channels (Homo sapiens)
Construct: expressed in transfected cells
ASSAY REMARKS: Nav1.8 Qube automated patch-clamp assay
Assay type: cell-based
RUN CONDITIONS: human Nav1.8 stably expressed in HEK 293 cells; whole-cell voltage clamp, room temperature; resting or inactivated state not specified; read-out: IC50 values (nM) for Examples in the Nav1.8 Qube Assay
Give IC50 for every item shown.
Numbers only, in nM.

MOLECULE	VALUE OBSERVED
O=C(O)c1ccc(NC(=O)c2cc(C(F)(F)F)cnc2N2CCC(F)(F)CC2)cn1	2380
CS(=O)(=O)n1cc(NC(=O)c2cc(C(F)(F)F)cnc2N2CCCC(F)(F)CC2)c2cccnc21	4
CC1(C)CN(c2ncc(C(F)(F)F)cc2C(=O)Nc2ccnc(S(N)(=O)=O)c2)CCCO1	139
CC1CC(F)(F)CCN1c1ncc(C(F)(F)F)cc1C(=O)Nc1ccnc(S(N)(=O)=O)c1 (single isomer, unassigned) [Example 74]	319
Cc1nc(N2CCC(F)(F)C(C)C2)c(C(=O)Nc2ccnc(S(N)(=O)=O)c2)cc1Cl (single isomer, unassigned) [Example 55]	1.4

Could you report IC50 for every entry in the following list?
1. N#Cc1ccc(NC(=O)c2cc(C(F)(F)F)cnc2N2CCC(F)(F)CC2)cn1
2. O=C(Nc1cc[nH]c(=O)c1)c1cc(C(F)(F)F)cnc1N1CCC2(CC1)CC2

A:
1. 820
2. 287

====

Give IC50 for every item shown.
STUDY SYSTEM: human Nav1.8 channels (Homo sapiens, UniProt Q9Y5Y9)
Construct: expressed in transfected cells
Sequence (Q9Y5Y9 whole entry): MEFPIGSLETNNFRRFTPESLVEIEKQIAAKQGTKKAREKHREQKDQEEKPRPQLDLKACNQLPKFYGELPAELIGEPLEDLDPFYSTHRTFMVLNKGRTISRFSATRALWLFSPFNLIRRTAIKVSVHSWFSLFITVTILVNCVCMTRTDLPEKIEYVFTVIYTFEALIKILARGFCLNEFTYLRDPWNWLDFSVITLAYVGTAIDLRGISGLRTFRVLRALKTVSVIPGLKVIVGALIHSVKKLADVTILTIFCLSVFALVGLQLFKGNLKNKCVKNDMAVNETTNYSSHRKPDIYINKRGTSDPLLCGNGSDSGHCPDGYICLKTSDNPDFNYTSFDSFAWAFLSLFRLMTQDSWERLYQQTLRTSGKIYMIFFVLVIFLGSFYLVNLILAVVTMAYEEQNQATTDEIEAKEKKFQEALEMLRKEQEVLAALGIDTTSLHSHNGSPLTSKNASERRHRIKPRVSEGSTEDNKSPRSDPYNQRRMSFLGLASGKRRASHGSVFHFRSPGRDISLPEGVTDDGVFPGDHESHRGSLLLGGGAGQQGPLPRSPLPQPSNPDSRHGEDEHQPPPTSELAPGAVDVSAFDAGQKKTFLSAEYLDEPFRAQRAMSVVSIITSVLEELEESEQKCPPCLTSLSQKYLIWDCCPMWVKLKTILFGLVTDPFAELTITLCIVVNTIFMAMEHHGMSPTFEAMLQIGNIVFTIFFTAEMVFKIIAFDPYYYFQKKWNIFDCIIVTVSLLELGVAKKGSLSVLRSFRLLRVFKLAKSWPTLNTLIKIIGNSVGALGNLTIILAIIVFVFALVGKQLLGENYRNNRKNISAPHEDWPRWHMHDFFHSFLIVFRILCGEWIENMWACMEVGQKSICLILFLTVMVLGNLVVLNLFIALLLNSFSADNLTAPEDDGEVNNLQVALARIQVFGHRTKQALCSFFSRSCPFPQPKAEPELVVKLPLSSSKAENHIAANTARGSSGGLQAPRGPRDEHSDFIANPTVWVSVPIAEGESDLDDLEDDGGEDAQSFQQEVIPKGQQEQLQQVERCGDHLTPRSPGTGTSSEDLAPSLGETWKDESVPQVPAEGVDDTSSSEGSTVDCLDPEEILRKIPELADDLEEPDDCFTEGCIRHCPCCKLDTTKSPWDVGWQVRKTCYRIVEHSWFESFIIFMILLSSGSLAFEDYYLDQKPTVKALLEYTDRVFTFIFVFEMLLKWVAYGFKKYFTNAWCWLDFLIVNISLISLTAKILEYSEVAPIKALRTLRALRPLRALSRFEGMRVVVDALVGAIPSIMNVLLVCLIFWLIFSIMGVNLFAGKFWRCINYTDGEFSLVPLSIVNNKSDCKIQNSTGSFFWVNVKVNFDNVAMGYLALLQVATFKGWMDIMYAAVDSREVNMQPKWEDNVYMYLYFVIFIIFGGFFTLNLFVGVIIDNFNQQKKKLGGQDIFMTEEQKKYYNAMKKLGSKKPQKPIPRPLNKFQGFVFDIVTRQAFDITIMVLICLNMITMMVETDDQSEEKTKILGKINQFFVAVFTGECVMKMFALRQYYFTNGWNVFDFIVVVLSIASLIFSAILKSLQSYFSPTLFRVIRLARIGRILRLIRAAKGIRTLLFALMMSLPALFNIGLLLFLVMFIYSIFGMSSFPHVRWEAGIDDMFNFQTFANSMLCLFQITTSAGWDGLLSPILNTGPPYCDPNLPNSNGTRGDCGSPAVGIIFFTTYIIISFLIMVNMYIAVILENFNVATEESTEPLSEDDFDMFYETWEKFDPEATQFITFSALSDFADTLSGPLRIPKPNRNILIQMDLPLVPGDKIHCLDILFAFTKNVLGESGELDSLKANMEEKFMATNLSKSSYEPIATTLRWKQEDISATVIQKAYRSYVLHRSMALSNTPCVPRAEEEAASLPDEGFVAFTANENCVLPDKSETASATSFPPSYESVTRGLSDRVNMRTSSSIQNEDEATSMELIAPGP
ASSAY REMARKS: Nav1.8 Qube automated patch-clamp assay
Format: cell-based
RUN CONDITIONS: human Nav1.8 stably expressed in HEK 293 cells; whole-cell voltage clamp, room temperature; resting or inactivated state not specified; read-out: IC50 values (nM) for Examples in the Nav1.8 Qube Assay
Numbers only, in nM.

COMPOUND	IC50, nM
Cc1nc(N2CCOC(C(F)F)C2)c(C(=O)Nc2ccnc(S(N)(=O)=O)c2)cc1Cl (single isomer, unassigned) [Example 124]	50
NS(=O)(=O)c1cc(NC(=O)c2cc(C(F)(F)F)cnc2N2CCCC(Cc3ccc(C(F)(F)F)cc3)C2)ccn1 (stereo not shown)	114
Cc1nc(N2CCC3(CC2)CC3)c(C(=O)Nc2cncc(S(N)(=O)=O)c2)c(C)c1Cl	31

Consider now this further compound.
Q: Identify IC50 associated with the compound Cc1cc(Cl)nc(N2CCC(F)(F)CC2)c1C(=O)Nc1ccnc(S(N)(=O)=O)c1
A: 24

====

STUDY SYSTEM: human Nav1.8 channels (Homo sapiens, UniProt Q9Y5Y9)
Construct: expressed in transfected cells
ASSAY REMARKS: Nav1.8 Qube automated patch-clamp assay
Assay type: cell-based
RUN CONDITIONS: human Nav1.8 stably expressed in HEK 293 cells; whole-cell voltage clamp, room temperature; resting or inactivated state not specified; read-out: IC50 values (nM) for Examples in the Nav1.8 Qube Assay
// NB: equality with 20 nM counts as False; only IC50 strictly below is True

COMPOUND	LABEL VALUE
C[C@@H]1CN(c2ncc(C(F)(F)F)cc2C(=O)Nc2ccnc(S(N)(=O)=O)c2)C[C@H](C)C1(F)F	True
C[C@H]1CN(c2ncc(C(F)(F)F)cc2C(=O)Nc2ccnc(S(N)(=O)=O)c2)CC[C@@H]1O	False
NS(=O)(=O)c1cc(NC(=O)c2cc(C(F)(F)F)cnc2N2CCCCCC2)ccn1	True
NS(=O)(=O)c1cc(NC(=O)c2cc(C(F)(F)F)cnc2N2CC(Oc3ccc(C(F)(F)F)cc3)C2)ccn1	False

Q: Please determine if C[C@H]1CN(c2ncc(C(F)(F)F)cc2C(=O)Nc2ccnc(S(N)(=O)=O)c2)CCO1 is below 20 nM in terms of IC50.
A: False

Q: Please determine if CC1CN(c2ncc(C(F)(F)F)cc2C(=O)Nc2ccnc(S(N)(=O)=O)c2)CCC(C(F)(F)F)O1 (single isomer, unassigned) [Example 120] is below 20 nM in terms of IC50.
A: True

Q: Please determine if NS(=O)(=O)c1cc(NC(=O)c2cc(C(F)(F)F)cnc2N2CCCC(C(F)(F)F)C2)ccn1 (stereo not shown) is below 20 nM in terms of IC50.
A: False

====

Give IC50 for every item shown.
STUDY SYSTEM: human Nav1.8 channels (Homo sapiens)
Construct: expressed in transfected cells
ASSAY REMARKS: Nav1.8 Qube automated patch-clamp assay
Format: cell-based
RUN CONDITIONS: human Nav1.8 stably expressed in HEK 293 cells; whole-cell voltage clamp, room temperature; resting or inactivated state not specified; read-out: IC50 values (nM) for Examples in the Nav1.8 Qube Assay
One number for each entry, in nM.

Reference set, count: 3
COMPOUND	VALUE OBSERVED
CC1CN(c2nc(C(F)(F)F)ccc2C(=O)Nc2ccnc(S(N)(=O)=O)c2)CCC1(F)F (single isomer, unassigned) [Example 162]	22
COc1cc(NC(=O)c2cc(C(F)(F)F)cnc2N2CCCC(F)(F)CC2)ccn1	177
NS(=O)(=O)c1cc(NC(=O)c2cc(C(F)(F)F)cnc2N2CCC[C@H]2C(F)(F)F)ccn1	21

Consider now this further compound.
Q: Identify IC50 associated with the compound COc1cc(NC(=O)c2cc(C(F)(F)F)cnc2N2CCC3(CC2)CC3)ccn1
A: 1540

Source listed as patent US20210387966A1.
